These measurements were taken from PubChem BioAssay AID463173.

Would you mind telling me the reported survival of each entry?
# Test system: DeltatarO mutant
# experiment-summary: S. aureus survival, RN4220 and DeltatarO strains – OD600, teichoic acid synthesis inhibitors, primary screen (AID 463173)
# stated-conditions: S. aureus RN4220 wild type/DeltatarO growth, OD600, 18 h, stronger effect = lower value, screened at 18.75 µg/mL (by protocol)
In all, about 52,000 compounds went through this assay and about 4,300 (8.3%) were called active. The list comes from a sample in which actives are over-represented; it also holds close analogues and randomly drawn compounds.
Return type: number; implicit unit %.

Record COC(=O)c1ccc(C(=O)Nc2ccc(-c3nc4cc(NC(=O)c5ccc(C(=O)OC)cc5)ccc4o3)cc2)cc1 has DeltatarO mutant survival equal to 60

Measured on DeltatarO mutant, COc1ccc(C(=O)NC(c2ccccc2Cl)c2cc(Cl)c3cccnc3c2O)cc1 (configuration not stated) has a documented survival of 92

Query COc1cc(OC)cc(C(=O)Nc2ccc3oc(-c4cccc5c(Br)cccc45)nc3c2)c1 on DeltatarO mutant; survival returned: 60

So the reported survival for O=C(Nc1ccc(-c2nc3cc(NC(=O)c4ccc(Cl)cc4)ccc3o2)cc1)c1ccc(Cl)cc1 , on DeltatarO mutant, turned out to be 88

Readout survival for COc1cccc(C(=O)NC(c2ccc(Cl)cc2)c2cc(Cl)c3cccnc3c2O)c1 (configuration not stated) , test system DeltatarO mutant, was 89

The reported survival value, DeltatarO mutant, for COc1ccc(C(=O)NC(c2ccc(Cl)cc2)c2cc(Cl)c3cccnc3c2O)cc1 (configuration not stated) reads 88

Bench note, DeltatarO mutant: Cc1ccc(C(Nc2ccccn2)c2ccc3cccnc3c2O)cc1 (configuration not stated) , survival reads 1

# value of survival, DeltatarO mutant, item Cc1nc2sc(C(N)=O)c(N)c2c(-c2ccc(Br)cc2)c1C(=O)Nc1ccc(Cl)cc1 = 10

Measured survival for this entry COc1cccc(C(=O)Oc2c(Sc3ccc(C)cc3)c(C)nn2C(C)(C)C)c1OC on DeltatarO mutant: 21

CCOC(=O)c1ccccc1NC(=O)CN1CCCN(Cc2cccc(Cl)c2)S1(=O)=O on DeltatarO mutant gives survival = 101

For the compound Oc1cccc(C(Nc2ccccn2)c2ccc3cccnc3c2O)c1Cl (configuration not stated) , the measured survival on DeltatarO mutant was 26

Sample CC1CCC(NC(=O)c2ccc3c(c2)N(Cc2cccc(Cl)c2)C(=O)c2ccccc2S3(=O)=O)CC1 (configuration not stated) , system: DeltatarO mutant. Its survival is 74

Here O=C(COc1ccc(S(=O)(=O)N2CCCC2)cc1)N1CCCC1 was tested on DeltatarO mutant, and its survival came to 91

Form: item CCC(=O)NC(c1ccccc1OC)c1cc(Cl)c2cccnc2c1O (configuration not stated) ; test system DeltatarO mutant; survival: 68

Reported survival (DeltatarO mutant) for entry CN(C)CCNC(=O)Cn1c(=O)c2cccn2c2ccc(F)cc21 is 103

Reported DeltatarO mutant survival for item COc1ccccc1NC(=O)c1c(C)cc(C)nc1SCC(=O)Nc1ccc(C)cc1 was 51

The measured survival that COc1cc(C(=O)Nc2ccc(-c3nc4cc(C)c(C)cc4o3)cc2)cc(OC)c1OC showed for DeltatarO mutant is 59

* * *

# Test system: DeltatarO mutant
# experiment-summary: S. aureus survival, RN4220 and DeltatarO strains – OD600, teichoic acid synthesis inhibitors, primary screen (AID 463173)
# stated-conditions: S. aureus RN4220 wild type/DeltatarO growth, OD600, 18 h, stronger effect = lower value, screened at 18.75 µg/mL (by protocol)
About 4,300 (8.3%) of roughly 52,000 compounds were called active. Shown is part of a subset that was picked to be rich in actives.
readout-label: survival (%)
The answer is to be given in %; state only the numeric part.

So for Cc1ccc(NCc2cccn2-c2nnc(N3CCCCCC3)s2)cc1 , the logged survival turned out to be 78

Entry under test: Cc1cc(NC(=O)C(C)(C)Oc2ccc(Cl)cc2)cc(-c2nc3ncccc3o2)c1O . Its survival was 82

What the record says about Cc1cc(C)c(NC(=O)Nc2csc3c2CCCC3)c(C)c1 : survival is 78
